target: GPR176; experiment: pooled miR-30 sensor sort-seq; sequence = guide strand; conditions: shRNA; also: reference of the scale not given here
REPORTED PROPERTY: sensor-assay potency score (higher = more potent)

seq_string=TTTATTGTTTCTGCTCATCTTC obs_value=-0.299
seq_string=TTTTTAATGAACCTGTTGGTGA obs_value=-0.59
seq_string=TTGTCTGGATCAGCTCTTCTGG obs_value=-0.703
seq_string=TTGAACACGGTTGTGCGGCAAG obs_value=-0.817
seq_string=TTGCTCCAGACTTCCGTGCAGG obs_value=-0.956
seq_string=TAACACCATGAAGTTTCCGAGC obs_value=-1.48
seq_string=TAGAGGACTGAGTAGTACCTGT obs_value=-0.351
seq_string=TATGATGACCTTCTTCTTCTGG obs_value=0.194
seq_string=AAAAATTTGACGACCTTGCAGA obs_value=-0.383

Origin of the recorded values: the OligoGym collection
